measured_parameter: flash point

Record excerpt, results attached:
In [3]: df
Out[3]:
                                   compound  measured
0                             Cc1cccc(O)c1C   95.0 °C
1  CCC(C)CC(C)(C)CC (configuration not stated) [3,3,5-Trimethylheptane]     31 °C
2                           Cc1cc(C)cc(C)c1   44.5 °C
3                                CCCC(C)CCC    6.0 °C

What does the data say about its flash point? Entry: CCC(C)C(C)=O (configuration not stated)
12.0 °C

Also C=CCCCCCC [1-Octene] , if possible.
11.5 °C

CCC(=O)CC ?
7.0 °C

---

# key: entry, value: flash point
Just the number in °C, nothing appended.

The following compounds have reported results that may help.
>>> print(df.to_string())
                       compound  measured_parameter  measured
0  CCCC(C)Br (stereo not given)         flash point     21.00
1                   C#CC(C)(C)O         flash point     25.00

Returns the measured flash point for the input compound. Input: COC(=O)C(C)O (stereo not given) [methyl 2-hydroxypropanoate]
51.00

Then CCC(CC)C(=O)OCCOCCOCCOC(=O)C(CC)CC ?
196.00

---

measured_parameter: flash point (°C)
Value expressed in °C; do not type the unit.

Use the examples below as a reference point.
                       compound  measured_parameter  measured
0  CCCCCOC(C)=O [pentylacetate]         flash point        39
1                      IC1CCCC1         flash point        52
2                       ClCCCCl         flash point        21
3                    C=CC(=C)Cl         flash point       -20
4                     Ic1ccccc1         flash point        74

Now take the following compound into account.
Reported flash point, compound COCC(C)C : ____
-29

---

Where a name gives a salt, the structure may show the parent alone.
Quick rule for you: flash point under 90 °C gets Satisfied, anything else gets Not satisfied.

These recorded examples may help you get a feel for the data.
                            compound  qualitative_label
0     CC(C)CCOC=O [iso-Amyl formate]          Satisfied
1          CCOC(C)=O [Ethyl acetate]          Satisfied
2                           ClCCCCCl          Satisfied
3                         CCCCC(C)=O          Satisfied
4                    CC(C)=CC(C)(C)C          Satisfied
5  O=C1C=CC(=O)O1 [Maleic anhydride]      Not satisfied
6       CCCC(=O)OCC [Ethyl butyrate]          Satisfied
7                 Clc1ccc(Cl)c(Cl)c1      Not satisfied
8      CC(=O)C=C(C)C [Mesityl oxide]          Satisfied
9          CCCCCl [n-Butyl chloride]          Satisfied

is_below(flash point, 90 °C) for OCc1ccco1 ?
Satisfied

# repeat for CCCCCCC(C)OC(=O)c1ccccc1C(=O)OC(C)CCCCCC (centres undefined) [Di-sec-Octyl phthalate]
Not satisfied

Further, for C=COCCCC ?
Satisfied

Check CC(C)c1ccccc1C(C)C too.
Satisfied

Also, c1ccc(Nc2ccccc2)cc1 please.
Not satisfied
